Tested on: CCRF-CEM
Test: NCI tumour cell line growth inhibition, 48 h
Active and inactive are the calls of the source. No stated cut-off is given here; in the data, active = GI50 up to about 1.1 µM and inactive = higher.
Result category, one only: active, inactive

Sample answers from the record:
COMPOUND	ANSWER LABEL
CN(C)Cc1cc(C(=O)/C=C/c2ccccc2Cl)cc(CN(C)C)c1O	inactive
CN/N=C(/C=C/c1ccccc1)C(C)C	inactive
CN(C)CC1CCC/C1=N\O (stereo unspecified)	inactive
O=C(/C=C/CC(O)(c1ccccc1)c1ccccc1)Nc1ccccc1Cl	inactive
CC1(C2COC(=O)C2)SCCCS1 (stereo unspecified)	inactive

Hey, what did the test say about CC(C)c1ccc(C2NC(S)=NC3=C2c2ccccc2C3=O)cc1 (stereo unspecified) ? inactive

Input `CN(C)CCCNc1cnc2cc3ccccc3cc2n1` inactive

Input `O=C(CCCN1CCc2[nH]c3cc(F)ccc3c2C1)c1ccc(F)cc1` inactive

Input `ClC1=C(Cl)C(Cl)(Cl)c2c3c(c4c(c21)C(Cl)(Cl)C(Cl)=C4Cl)C(Cl)(Cl)C(Cl)=C3Cl` inactive

Input `COc1ccc(/C=C/c2ccnc3ccccc23)cc1OC` inactive

Input `COc1ccc2c(c1O)[C@@]13CCCC=C1[C@@H](C2)N(C)CC3` inactive

Input `COc1ccc2c(c1[N+](=O)[O-])CC[C@@H]1[C@@H]2CC[C@]2(C)C(=O)CC[C@@H]12` inactive

Input `CC(=O)Nc1ccc2c(c1)/C(=N/c1ccc(C(=O)O)cc1)c1ccccc1-2` inactive

Input Cc1c2oc3c(C)cc(F)c(C(=O)NC4C(=O)NC(C(C)C)C(=O)N5CCCC5C(=O)N(C)CC(=O)N(C)C(C(C)C)C(=O)OC4C)c3nc-2c(C(=O)NC2C(=O)NC(C(C)C)C(=O)N3CCCC3C(=O)N(C)CC(=O)N(C)C(C(C)C)C(=O)OC2C)c(N)c1=O (stereo unspecified) active

All values here come from ChEMBL document CHEMBL1201862.
